FYI, the data here is from patent US20100179122A1.

What pIC50 was measured for each of the following?
- measurement.target: mutant HIV reverse transcriptase (K103N mutation) (Human immunodeficiency virus type 1 group M subtype B, UniProt P04585, K690N)
- Construct: mutations that occur in the reverse transcriptase segment of the pol gene; made in house
- assay.info: Analogous RT inhibition assay, K103N mutant
- Format: biochemical
pIC50: −log10 of the molar value.

Exercise: For the compound `O=C(CNCc1cscn1)Nc1[nH]c2ccc(Cl)cc2c1S(=O)(=O)c1ccccc1` , what pIC50 is on record?
Solution: > 6.00

Exercise: For the compound `O=C(CN1CCC(c2ccncc2)CC1)Nc1[nH]c2ccc(Cl)cc2c1S(=O)(=O)c1ccccc1` , what pIC50 is on record?
Solution: < 4.70

Exercise: For the compound `O=C(NCCNc1ccccc1)Nc1[nH]c2ccc(Br)cc2c1S(=O)(=O)N1CCCC1` , what pIC50 is on record?
Solution: 4.70 to 6.00

Exercise: For the compound `CN1CCN(C(=O)Nc2[nH]c3ccc(Br)cc3c2S(=O)(=O)N2CCCC2)CC1` , what pIC50 is on record?
Solution: 4.70 to 6.00

###

- measurement.target: mutant HIV reverse transcriptase (Y181C mutation) (Human immunodeficiency virus type 1 group M subtype B, UniProt P04585, Y768C)
- Construct: mutations that occur in the reverse transcriptase segment of the pol gene; made in house
- assay.info: Analogous RT inhibition assay, Y181C mutant
- Format: biochemical
- test.context: reverse transcriptase with Y181C mutation; tested up to 20 micromolar; read-out: IC50, Y181C mutant assay
What IC50 was measured for each of the following?

Exercise: For the compound `O=C(Nc1[nH]c2ccc(Br)cc2c1S(=O)(=O)N1CCCC1)Nc1c(F)cccc1F` , what IC50 is on record?
Solution: 1 to 20 µM

Exercise: For the compound `O=C(Nc1ccccn1)Nc1[nH]c2ccc(Br)cc2c1S(=O)(=O)N1CCCC1` , what IC50 is on record?
Solution: 1 to 20 µM

Exercise: For the compound `O=C(NCCCc1ccccc1)Nc1[nH]c2ccc(Br)cc2c1S(=O)(=O)N1CCCC1` , what IC50 is on record?
Solution: > 20 µM

Exercise: For the compound `O=C(NCCc1ccccc1)Nc1[nH]c2ccc(Br)cc2c1S(=O)(=O)N1CCCC1` , what IC50 is on record?
Solution: > 20 µM

Exercise: For the compound NC(=O)C1CCCN(C(=O)Nc2[nH]c3ccc(Br)cc3c2S(=O)(=O)N2CCCC2)C1 (centres unmarked) , what IC50 is on record?
Solution: > 20 µM

Exercise: For the compound `O=C(Nc1[nH]c2ccc(Br)cc2c1S(=O)(=O)N1CCCC1)N1CCCC1` , what IC50 is on record?
Solution: > 20 µM

Exercise: For the compound `CC(C)(C)CCNC(=O)Nc1[nH]c2ccc(Br)cc2c1S(=O)(=O)N1CCCC1` , what IC50 is on record?
Solution: > 20 µM

Exercise: For the compound `O=C(NCCc1ccccn1)Nc1[nH]c2ccc(Br)cc2c1S(=O)(=O)N1CCCC1` , what IC50 is on record?
Solution: > 20 µM

###

What IC50 was measured for each of the following?
- measurement.target: mutant HIV reverse transcriptase (Y181C mutation) (Human immunodeficiency virus type 1 group M subtype B, UniProt P04585, Y768C)
- Construct: mutations that occur in the reverse transcriptase segment of the pol gene; made in house
- assay.info: Analogous RT inhibition assay, Y181C mutant
- Type: biochemical

Exercise: For the molecule `O=C(CN1CCC(c2ccncc2)CC1)Nc1[nH]c2ccc(Cl)cc2c1S(=O)(=O)c1ccccc1` , what IC50 is on record?
Solution: > 20 µM

Exercise: For the molecule `CO[C@@](C(=O)Nc1[nH]c2ccc(Cl)cc2c1S(=O)(=O)c1ccccc1)(c1ccccc1)C(F)(F)F` , what IC50 is on record?
Solution: < 1 µM

Exercise: For the molecule `CN(C)CCCNC(=O)Nc1[nH]c2ccc(Br)cc2c1S(=O)(=O)N1CCCC1` , what IC50 is on record?
Solution: 1 to 20 µM
